Listing: GI50 of selected compounds
System: A549
EXPERIMENT NOTES: Cytotoxicity against human A549 cells after 72 hrs by SRB assay
Assay type: functional
CONDITION CONTEXT: A549, 72 h
Where a SMILES comes first, the peptide text is derived from it. Bridges are numbered along the chain shown (N, C = ends). Roman numbers before positions name the chains, in order. [ ]: non-standard residue; d: D form. The star is where a group is joined. Quinoxaline2carbonyl = O=C(c1cnc2ccccc2n1)*; Quinaldoyl(3-OH) = O=C(c1nc2ccccc2cc1O)*; Quinaldoyl = O=C(c1ccc2ccccc2n1)*; NMeF = CN[C@@H](Cc1ccccc1)C(=O)O; NMeL = CN[C@@H](CC(C)C)C(=O)O; Orn = NCCC[C@H](N)C(=O)O; Dap = NC[C@H](N)C(=O)O; Sar = CNCC(=O)O
RESULT TYPE: GI50 (nM)

INSERT INTO measurements (compound, result_type, quantitative_readout) VALUES
  ('CC(C)C[C@H]1C(=O)N(C)CC(=O)N(C)[C@@H](Cc2ccccc2)C(=O)NC[C@H](NC(=O)c2ccc3ccccc3n2)C(=O)N(C)[C@@H](CC(C)C)C(=O)N(C)CC(=O)N(C)[C@@H](Cc2ccccc2)C(=O)NC[C@H](NC(=O)c2ccc3ccccc3n2)C(=O)N1C (I: Quinaldoyl-[Dap][NMeL][Sar][NMeF] / II: Quinaldoyl-[Dap][NMeL][Sar][NMeF]; amide I:1-II:C, I:C-II:1)', 'GI50', 4160),
  ('CC(C)C[C@H]1C(=O)NCCC[C@H](NC(=O)c2ccc3ccccc3n2)C(=O)N(C)[C@@H](CC(C)C)C(=O)N(C)CC(=O)N(C)[C@@H](CC(C)C)C(=O)NCCC[C@H](NC(=O)c2ccc3ccccc3n2)C(=O)N(C)[C@@H](CC(C)C)C(=O)N(C)CC(=O)N1C (I: Quinaldoyl-[Orn][NMeL][Sar][NMeL] / II: Quinaldoyl-[Orn][NMeL][Sar][NMeL]; amide I:1-II:C, I:C-II:1)', 'GI50', 2940),
  ('CC(C)C[C@@H](C(=O)N[C@H]1COC(=O)[C@H](Cc2ccccc2)N(C)C(=O)[C@H](CC(C)C)N(C)C(=O)[C@@H](NC(=O)[C@H](CC(C)C)N(C)C)COC(=O)[C@H](Cc2ccccc2)N(C)C(=O)[C@H](CC(C)C)N(C)C1=O)N(C)C', 'GI50', 2900),
  ('CC(C)C[C@H]1C(=O)NC[C@H](NC(=O)c2cnc3ccccc3n2)C(=O)N(C)[C@@H](CC(C)C)C(=O)N(C)CC(=O)N(C)[C@@H](CC(C)C)C(=O)NC[C@H](NC(=O)c2cnc3ccccc3n2)C(=O)N(C)[C@@H](CC(C)C)C(=O)N(C)CC(=O)N1C (I: Quinoxaline2carbonyl-[Dap][NMeL][Sar][NMeL] / II: Quinoxaline2carbonyl-[Dap][NMeL][Sar][NMeL]; amide I:1-II:C, I:C-II:1)', 'GI50', 1410),
  ('CC(C)C[C@H]1C(=O)NC[C@H](NC(=O)c2ccc3ccccc3n2)C(=O)N(C)[C@@H](CC(C)C)C(=O)N(C)CC(=O)N(C)[C@@H](CC(C)C)C(=O)OC[C@H](NC(=O)c2ccc3ccccc3n2)C(=O)N(C)[C@@H](CC(C)C)C(=O)N(C)CC(=O)N1C (I: Quinaldoyl-[Dap][NMeL][Sar][NMeL] / II: Quinaldoyl-S[NMeL][Sar][NMeL]; amide I:1-II:C; ester I:C-II:1)', 'GI50', 2760),
  ('CC(C)C[C@H]1C(=O)NC[C@H](NC(=O)c2nc3ccccc3cc2O)C(=O)N(C)[C@@H](CC(C)C)C(=O)N(C)CC(=O)N(C)[C@@H](CC(C)C)C(=O)NC[C@H](NC(=O)c2nc3ccccc3cc2O)C(=O)N(C)[C@@H](CC(C)C)C(=O)N(C)CC(=O)N1C (I: {Quinaldoyl(3-OH)}-[Dap][NMeL][Sar][NMeL] / II: {Quinaldoyl(3-OH)}-[Dap][NMeL][Sar][NMeL]; amide I:1-II:C, I:C-II:1)', 'GI50', 2400),
  ('CC(C)C[C@H]1C(=O)NC[C@H](NC(=O)c2ccc3ccccc3n2)C(=O)N(C)[C@@H](CC(C)C)C(=O)NCC(=O)N(C)[C@@H](CC(C)C)C(=O)NC[C@H](NC(=O)c2ccc3ccccc3n2)C(=O)N(C)[C@@H](CC(C)C)C(=O)NCC(=O)N1C (I: Quinaldoyl-[Dap][NMeL]G[NMeL] / II: Quinaldoyl-[Dap][NMeL]G[NMeL]; amide I:1-II:C, I:C-II:1)', 'GI50', 1180),
  ('CC(C)C[C@H]1C(=O)NC[C@H](NC(=O)c2ccc3ccccc3n2)C(=O)N(C)[C@@H](CC(C)C)C(=O)N(C)CC(=O)N(C)[C@@H](CC(C)C)C(=O)NC[C@H](NC(=O)c2ccc3ccccc3n2)C(=O)N(C)[C@@H](CC(C)C)C(=O)N(C)CC(=O)N1C (I: Quinaldoyl-[Dap][NMeL][Sar][NMeL] / II: Quinaldoyl-[Dap][NMeL][Sar][NMeL]; amide I:1-II:C, I:C-II:1)', 'GI50', 570),
  ('CC(C)C[C@@H](C(=O)N[C@H]1CNC(=O)[C@H](Cc2ccccc2)N(C)C(=O)[C@H](CC(C)C)N(C)C(=O)[C@@H](NC(=O)[C@H](CC(C)C)N(C)C)CNC(=O)[C@H](Cc2ccccc2)N(C)C(=O)[C@H](CC(C)C)N(C)C1=O)N(C)C', 'GI50', 2860),
  ('CC(C)C[C@H]1C(=O)NCCCC[C@H](NC(=O)c2ccc3ccccc3n2)C(=O)N(C)[C@@H](CC(C)C)C(=O)N(C)CC(=O)N(C)[C@@H](CC(C)C)C(=O)NCCCC[C@H](NC(=O)c2ccc3ccccc3n2)C(=O)N(C)[C@@H](CC(C)C)C(=O)N(C)CC(=O)N1C (I: Quinaldoyl-K[NMeL][Sar][NMeL] / II: Quinaldoyl-K[NMeL][Sar][NMeL]; amide I:1-II:C, I:C-II:1)', 'GI50', 3940);
